- System: HCC 2998
- assayProtocol: Growth inhibition of human HCC 2998 cells at 10 uM incubated for 48 hrs by sulforhodamine B assay relative to control
- Assay type: functional
- measurementConditions: read-out: GI
metricName: inhibition of growth at 10 µM (%)
Numbers only here, please. The scale is %.

Fill in inhibition of growth at 10 µM for record `O=C(CNc1c(Cl)cccc1Cl)Nc1ccc(-c2nc3ccccc3s2)cc1`
64.4

Fill in inhibition of growth at 10 µM for record `O=C(CN(c1ccccc1)c1ccccc1)Nc1ccc(-c2nc3ccccc3s2)cc1`
-1.62

Fill in inhibition of growth at 10 µM for record `O=C(CN1CCOCC1)Nc1ccc(-c2nc3ccccc3s2)cc1`
12

Fill in inhibition of growth at 10 µM for record `O=C(CNc1ccccc1)Nc1ccc(-c2nc3ccccc3s2)cc1`
-16

Fill in inhibition of growth at 10 µM for record `O=C(CNc1nc2ccccc2s1)Nc1ccc(-c2nc3ccccc3s2)cc1`
7.87

Fill in inhibition of growth at 10 µM for record `O=C(CNC1CCCCC1)Nc1ccc(-c2nc3ccccc3s2)cc1`
12.7

Fill in inhibition of growth at 10 µM for record `O=C(CN1C(=O)C(=O)c2ccccc21)Nc1ccc(-c2nc3ccccc3s2)cc1`
-1.9

Fill in inhibition of growth at 10 µM for record `Cc1cc(NCC(=O)Nc2ccc(-c3nc4ccccc4s3)cc2)no1`
0.84

Fill in inhibition of growth at 10 µM for record `CN1CCN(CC(=O)Nc2ccc(-c3nc4ccccc4s3)cc2)CC1`
22.7

Fill in inhibition of growth at 10 µM for record `O=C(Cn1ccc2ccccc21)Nc1ccc(-c2nc3ccccc3s2)cc1`
-3.48

Fill in inhibition of growth at 10 µM for record `O=C(Cn1c2ccccc2c2ccccc21)Nc1ccc(-c2nc3ccccc3s2)cc1`
0.28
